Source: PubChem BioAssay (NCI)

- Test system: TK-10 renal
- assayProtocol: NCI tumour cell line growth inhibition, 48 h
quantityName: TGI

Look over these answered cases.
INSERT INTO results (chemicalsmiles, readoutvalue) VALUES
  ('CC(C)(C)OC(=O)c1cnc(Cl)cn1', '> 100 µM'),
  ('COC(=O)N1CCc2c(nc(N(C)CCO)[nH]c2=O)C1', '> 100 µM');

Okay, now this molecule:
Specify measured TGI for `COc1cc2c3c(n(CCCN)c(=O)c2cc1OC)-c1cc2c(cc1/C3=C\CCN)OCO2` . > 28 µM

* * *

- Test system: HOP-92 NSCLC
- assayProtocol: NCI tumour cell line growth inhibition, 48 h
Item-by-item account of TGI
Lab book: enter the figure in µM, no units written.

INSERT INTO results (molecule, targetofassay, displayunit, readoutvalue) VALUES
  ('CC(C)(C)c1nn(-c2ccccc2)c2c1C(=O)CSC(c1ccccc1Cl)N2 (stereo not given)', 'HOP-92 NSCLC', 'µM', 14.4);

Read the next record carefully.
Please report the measured TGI for `CC1(C)N=C(N)N=C(N)N1c1ccc(OCCCCOc2ccc(S(=O)(=O)F)cc2)c(Cl)c1` 10.9

* * *

- Tested on: M14 melanoma
- assayProtocol: NCI tumour cell line growth inhibition, 48 h; in the data active = GI50 below about 0.43 µM; inactive = the rest
Tick one outcome: active, inactive

Example entries and their recorded answers appear below.
INSERT INTO assay_data (compound, targetofassay, categorylabel) VALUES
  ('Cc1ccc(/C=C2/SC(Nc3nc(-c4csc(NC5=NC(=O)/C(=C\c6ccc(C)cc6)S5)n4)cs3)=NC2=O)cc1', 'M14 melanoma', 'inactive'),
  ('C=C1C(=O)O[C@H]2[C@H]1CC/C(Cn1cc(-c3cc(C(F)(F)F)cc(C(F)(F)F)c3)nn1)=C\CC[C@@]1(C)O[C@@H]21', 'M14 melanoma', 'active'),
  ('O=C(c1ccco1)c1nc2cc(Cl)ccc2[n+]([O-])c1C(F)(F)F', 'M14 melanoma', 'inactive'),
  ('CC[C@H](Nc1nc(NCc2cnc(C)cc2C)c2ncn(C(C)C)c2n1)[C@@H](C)O', 'M14 melanoma', 'active'),
  ('COc1ccccc1CCN=C1NC(=O)/C(=C/c2ccc3ncccc3c2)S1', 'M14 melanoma', 'inactive');

How did this test come out for `CCc1c(C#N)c(S[C@@H](C(N)=O)c2ccccc2)nc(N(C)C)c1C#N` ? inactive

Could you please tell me the result logged for `N[C@@H]1CCCC[C@H]1N.O=C([O-])C(=O)[O-].[Pt+4]` in this assay? inactive

* * *

- Test system: OVCAR-8 ovarian
- assayProtocol: NCI tumour cell line growth inhibition, 48 h
Reported TGI values for the following compounds.

Below: 2 compounds and their reported TGI.
INSERT INTO measurements (compound, readoutvalue) VALUES
  ('CCOc1ccccc1NC(=O)CC1SC(=Nc2ccc([N+](=O)[O-])cc2)NC1=O (stereo not given)', '51.4 µM'),
  ('CCC/C(=N/NC(=O)C(N)=O)C(CC)C(=O)CCC(=O)N(Cc1ccccc1)Cc1ccccc1 (stereo not given)', '> 100 µM');

Let's switch to this compound now.
Please look at this compound and report its TGI: N#CC(C(=O)CCC(=O)C(C#N)c1ccccc1)c1ccccc1 (stereo not given) > 100 µM

* * *

- Test system: HCT-15 colon
- assayProtocol: NCI tumour cell line growth inhibition, 48 h
# reported TGI; entries follow

INSERT INTO measurements (compound, quantityname, readoutvalue) VALUES
  ('COc1cc(C)c(/C=C/C(=O)N2C(=O)OC[C@@H]2c2ccccc2)c(C)c1', 'TGI', '> 100 µM');

Give reported TGI value for `O=C(CN1CCN(CCCOc2c(-c3ccccc3)oc3ccccc3c2=O)CC1)Nc1ccc(Cl)cc1C(=O)c1ccccc1Cl` 53.8 µM

Hello, please tell me recorded TGI for this one: CC(OC(C)(C)C)[C@H](NC(=O)OC(C)(C)C)C(=O)O (stereo not given in full) > 100 µM

Quick one: give measured TGI for `COC(=O)/C([Se]c1c(C)cc(C)cc1C)=C(\[Se]c1c(C)cc(C)cc1C)C(=O)OC` > 100 µM

Look up and state reported TGI for O=C(NC(CS)C(=O)O)c1cccc2c(=O)c3ccccc3[nH]c12 (stereo not given) > 100 µM

Consider the compound `NC(=S)N/N=C(\Cc1nc2ccc(Cl)cc2[nH]c1=O)C(=O)Nc1ccc(Cl)cc1` and give its recorded TGI. > 100 µM

Find the measured TGI of `Nc1nc(N)c(NC(=O)CCCO)c(=O)[nH]1` and report it. > 100 µM

Identify measured TGI corresponding to CC(=O)N1OC(C)CC1Nc1ccc(Br)cc1 (stereo not given) > 100 µM

Give me measured TGI, please, for this compound: CC(C)(C)c1nn(-c2ccccc2)c2c1C(=O)CSC(c1ccccc1Cl)N2 (stereo not given) 16 µM

Provide only the value of recorded TGI for `O=C1C=C(Sc2ccccc2)c2nccc3c2c1nc1ccccc13` 26 µM

* * *

- Test system: KM20L2 colon
- assayProtocol: NCI tumour cell line growth inhibition, 48 h
quantityName: TGI

Worked set:
INSERT INTO measurements (compound, readoutvalue) VALUES
  ('N#CN=C(N)NC(=O)/C=C/C=C/c1ccc(Cl)cc1', '> 100 µM'),
  ('CN(C)c1ccc([O][Bi]([Cl])[Cl])cc1', '> 100 µM'),
  ('CC(=O)[CH-]C(=O)c1ccccc1.CC(=O)[CH-]C(=O)c1ccccc1.[Eu+3].[OH-].[OH3+]', '> 100 µM'),
  ('CCOc1ccccc1NC(=O)CC1SC(=Nc2ccc([N+](=O)[O-])cc2)NC1=O (stereo not given)', '42.2 µM'),
  ('Cc1cc2nc(CCC(=O)O)c(=O)[nH]c2cc1C', '> 100 µM'),
  ('C#CCOc1c(C(=O)OCC)c(=O)n(C)c2ccccc12', '> 100 µM'),
  ('N#Cc1c(NN)nc(NN)c(C#N)c1-c1ccccc1', '> 100 µM'),
  ('CCOC(=O)C12CCC(=O)C=C1[C@@H](C)C(=O)CC2 (stereo not given in full)', '> 100 µM');

Tell me TGI reported for CC(=O)OC[C@]1(O)CC[C@@]23CC1C[C@@H]2CCC1C(C)(C)CCC[C@@]13C (stereo not given in full) 31.7 µM

Provide one value: measured TGI of `CC(=O)[CH-]C(=O)c1ccccc1.CC(=O)[CH-]C(=O)c1ccccc1.CC1(C)C2CCC1(C)C([O-])C2.CC1(C)C2CCC1(C)C([O-])C2.[Ti+4]` > 100 µM

* * *

Each entry below carries its recorded TGI.
- Tested on: SK-OV-3 ovarian
- assayProtocol: NCI tumour cell line growth inhibition, 48 h

The cases that follow already have their TGI on record.
INSERT INTO measurements (chemicalsmiles, readoutvalue) VALUES
  ('[O-][n+]1onc2c1CCC(=N\O)/C2=N/Nc1ccccc1', '> 100 µM'),
  ('COc1ccc2nc3ccc(OC)cc3c(SCc3ccc([N+](=O)[O-])cc3)c2c1', '> 100 µM'),
  ('Cn1nc2ccc3nccc(N4CCN(CCO)CC4)c3c2n1', '> 100 µM'),
  ('Cc1ccc(NC(=O)CSc2nc(C)nc3c2sc(=S)n3-c2ccccc2)cc1', '> 10 µM'),
  ('COc1cc(OC)c2c(=O)cc(-c3ccccc3F)[nH]c2c1', '> 100 µM');

# evaluate next
Fill: TGI (SK-OV-3 ovarian) for this compound `COC(=O)N1CCc2c(nc(N(C)CCO)[nH]c2=O)C1` > 100 µM

* * *

- System: SK-OV-3 ovarian
- assayProtocol: NCI tumour cell line growth inhibition, 48 h
quantityName: GI50

These recorded examples may help you get a feel for the data.
INSERT INTO results (compound, readoutvalue) VALUES
  ('CC(=O)[CH-]C(=O)c1ccccc1.CC(=O)[CH-]C(=O)c1ccccc1.CC1(C)C2CCC1(C)C([O-])C2.CC1(C)C2CCC1(C)C([O-])C2.[Ti+4]', '20.8 µM'),
  ('CC(C)[C@H](CO)Nc1nc(Nc2ccc(C(=O)NCCNS(=O)(=O)c3cccc4c(N(C)C)cccc34)c(Cl)c2)c2ncn(C(C)C)c2n1', '> 100 µM'),
  ('CC1=C2C[C@H]3[C@@H](CC[C@@H]4CC(NS(C)(=O)=O)CC[C@@]43C)[C@@H]2CC[C@@]2(C1)O[C@@H]1C[C@H](C)CN[C@H]1[C@H]2C (some centres undefined)', '8.49 µM'),
  ('c1ccc2[nH]c(-c3ccc(NN=Nc4ccncc4)cc3)nc2c1', '> 100 µM'),
  ('CC(=O)[CH-]C(=O)c1ccccc1.CC(=O)[CH-]C(=O)c1ccccc1.[Eu+3].[OH-].[OH3+]', '> 100 µM'),
  ('Cc1cc2nc3c4cc(N)ccc4n(CCN(C)C)c3nc2cc1C', '1.92 µM'),
  ('O=C(CN1CCN(CCCOc2c(-c3ccccc3)oc3ccccc3c2=O)CC1)Nc1ccc(Cl)cc1C(=O)c1ccccc1Cl', '15.1 µM'),
  ('CC(=O)[CH-]C(=O)c1ccccc1.CC(=O)[CH-]C(=O)c1ccccc1.CC(C)CCCC(C)[C@H]1CCC2[C@@H]3CC=C4C[C@@H]([O-])CC[C@]4(C)C3CC[C@@]21C.CC[O-].[Ti+4] (some centres undefined)', '> 100 µM');

In the following, a different compound is considered.
Return reported GI50 for target or system SK-OV-3 ovarian, item `C/C(=N/Nc1nc2ccccc2n1C)c1ccccn1` . 0.113 µM
